Source: the RNAGym collection of RNA variant scans (doi:10.1093/nar/gkz1192)

B1: CPEB3 Ribozyme (parent)
chain: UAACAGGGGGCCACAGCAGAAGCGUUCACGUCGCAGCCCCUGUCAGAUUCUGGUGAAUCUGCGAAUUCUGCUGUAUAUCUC

# Variants of: B1
# Protocol text: self-cleavage, relative activity (ratio to wild type); higher = more cleavage; in vitro, sequencing

{"Mutant code": "G9A G42A", "self-cleavage": 0.3}
{"Mutant code": "A18U U60A", "self-cleavage": 0.3}
{"Mutant code": "A20U U49C", "self-cleavage": 0.3}
